Hello, the source for this data is patent US20250222125A1, in case you need it.

# system-under-test: Human FGFR2c (Homo sapiens, UniProt P21802)
# Sequence (P21802 22-821): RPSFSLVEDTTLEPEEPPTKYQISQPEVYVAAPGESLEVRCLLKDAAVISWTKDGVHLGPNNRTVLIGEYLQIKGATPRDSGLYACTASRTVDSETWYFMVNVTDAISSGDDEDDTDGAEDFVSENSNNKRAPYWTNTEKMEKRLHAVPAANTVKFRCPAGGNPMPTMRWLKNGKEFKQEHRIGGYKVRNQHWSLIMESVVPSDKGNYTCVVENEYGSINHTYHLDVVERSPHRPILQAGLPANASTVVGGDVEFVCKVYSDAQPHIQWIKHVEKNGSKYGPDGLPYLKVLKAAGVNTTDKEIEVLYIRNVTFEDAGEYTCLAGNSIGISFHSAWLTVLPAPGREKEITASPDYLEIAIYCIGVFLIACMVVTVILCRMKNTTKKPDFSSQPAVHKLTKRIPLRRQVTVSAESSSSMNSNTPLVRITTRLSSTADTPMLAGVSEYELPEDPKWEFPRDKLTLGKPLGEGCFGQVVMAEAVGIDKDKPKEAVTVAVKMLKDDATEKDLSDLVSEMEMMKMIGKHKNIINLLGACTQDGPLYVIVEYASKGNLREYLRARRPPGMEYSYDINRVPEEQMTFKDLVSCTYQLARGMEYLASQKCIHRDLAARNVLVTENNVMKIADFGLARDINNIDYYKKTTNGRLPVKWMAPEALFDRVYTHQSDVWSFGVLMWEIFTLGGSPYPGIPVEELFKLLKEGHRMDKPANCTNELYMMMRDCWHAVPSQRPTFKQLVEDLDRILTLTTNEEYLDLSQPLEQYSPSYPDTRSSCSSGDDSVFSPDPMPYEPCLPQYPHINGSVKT
# measurement-protocol: ELISA binding to recombinant human FGFR2c (Example 11)
# setup-conditions: in words
metric-name: binding to human FGFR2c

# molecule, metric-name, value
measured = [
    ("BGAm1823: parental murine anti-FGFR2b antibody; VH SEQ ID NO: 28, VL SEQ ID NO: 30 (antibody, V domains shown, Synthetic: VH AA; Synthetic: VL AA) VH: EVQLQQSGAELVKPGASVKISCKASGYAFSIYWMNWVKQRPGKGLEWIGQIYPENGDTNYNGKFKGKATLTADKSSSTAYMHLSSLTSEDSAVYFCARGGFDYWGQGTTLTVSS VL: NIVMTQSPASLSASVGETVTITCRASENIYSNLAWYQQKQGKSPQLLVYTATNLADGVPSRFSGSGSGTQFSLKINSLQPEDFGSYYCQHFYGILYTFGSGTRLEIK", "binding to human FGFR2c", "no detectable binding"),
    ("BGAm1371: parental murine anti-FGFR2b antibody (parental mouse clone); VH SEQ ID NO: 32, VL SEQ ID NO: 34 (antibody, V domains shown, Synthetic: VH AA; Synthetic: VL AA) VH: QVQLKQSGAELVKPGASVKLSCTASGFNIKDTYIHWVKQRPEQGLEWIGRIDPANGNTMFASEFQGKATITAYTSSNTAYMQLSSLTSGDTAVYYCARSKIHYDYDEGFAYWGQGTLVTVSS VL: NIVLTQSPPSLAVSLGQRATVSCRASESVDDYGYSFLHWYQQKPGQPPKLLIYRASNLESGIPARFSGSGSRTDFTLTINPVETDDVATYYCQQSNQNPRTFGGGTKLEIK", "binding to human FGFR2c", "no detectable binding"),
    ("BGAh9179: humanized anti-FGFR2b IgG1 antibody from murine BGAm1371; VH SEQ ID NO: 21, VL SEQ ID NO: 22 (antibody, V domains shown, Synthetic: VH AA; Synthetic: VL AA) VH: QVQLVQSGAEVKKPGASVKVSCKASGYTITDTYIHWVRQAPGQGLEWMGRIDPAEGNTMFASEFQGRVTMTADTSTSTVYMELSSLRSEDTAVYYCARSKIHYDYDEGFAYWGQGTLVTVSS VL: DIVLTQSPDSLAVSLGERATINCRASESVDDYGYSFLHWYQQKPGQPPKLLIYRASNLESGVPDRFSGSGSGTDFTLTISSLQAEDVAVYYCQQSNQNPRTFGGGTKVEIK", "binding to human FGFR2c", "no detectable binding"),
]
